# assayedSystem: McinOBP1-m2 (Leu62 to proline) (Macrocentrus cingulum, UniProt X2D9T4, L62P)
# Sequence (X2D9T4 21-140 L62P): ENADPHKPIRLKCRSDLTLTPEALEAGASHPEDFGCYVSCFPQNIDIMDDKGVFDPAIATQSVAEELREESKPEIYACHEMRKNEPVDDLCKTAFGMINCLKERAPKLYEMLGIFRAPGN
# testDetails: Competitive fluorescence binding assay, displacement of 1-NPN
assayMetric: Kd (µM)
Numeric answer only, unit µM assumed.

CC/C=C\CCO [Cis-3-Hexen-1-ol] :: 24.3

-- ask Please list Kd recorded for the compound CCCCCC/C=C/C=O [Trans-2-Nonenal]
-- reply 47.2

* * *

# assayedSystem: McinOBP1-wt (Macrocentrus cingulum)
# testDetails: Competitive fluorescence binding assay, displacement of 1-NPN
pKd: −log10 of the molar value.
Threshold check on pKd: at or above 5 gives Met, strictly below gives Not met.

Previously resolved entries follow.
CCCCCC/C=C/C=O [Trans-2-Nonenal] :: Met
C=CC(C)(O)CCC=C(C)C (centres unmarked) :: Not met
O=Cc1ccccc1 :: Not met
CC/C=C\CCO [Cis-3-Hexen-1-ol] :: Met

Consider now this further compound.
-- ask Answer whether pKd of CC1=CCC2CC1C2(C)C (centres unmarked) is greater than or equal to 5.
-- reply Not met

* * *

# assayedSystem: McinOBP1-wt (Macrocentrus cingulum)
# testDetails: Competitive fluorescence binding assay, displacement of 1-NPN
# settings: McinOBP1-wt; pH 7.4; 2 μM 1-NPN; read-out: IC50 (given as dash)
pIC50: −log10 of the molar value.
Reported pIC50 values for the following molecules.

CCC(C)CCCC(C)C (stereo not drawn) :: < 4.30
CCCCCCCCCC=O :: < 4.30

Below: the item to evaluate.
-- ask Please list pIC50 recorded for the molecule CCCCCCCCCCC=O
-- reply < 4.30

* * *

# assayedSystem: McinOBP1-wt (Macrocentrus cingulum, UniProt X2D9T4)
# Sequence (X2D9T4 entry or part of it): as the sequence (X2D9T4 21-140 L62P) above, with P42L counted along it
# testDetails: Competitive fluorescence binding assay, displacement of 1-NPN
assayMetric: IC50 (µM)
Numeric answer only, unit µM assumed.

C=CC(C)(O)CCC=C(C)C (stereo not shown) :: 18.6
CC(=O)/C=C/C1C(C)=CCCC1(C)C (stereo not shown) :: 12.1

-- ask Please list IC50 recorded for the molecule CC1=CCC2CC1C2(C)C (stereo not shown)
-- reply 17.8

-- ask Please list IC50 recorded for the molecule CCCCCC/C=C/C=O [Trans-2-Nonenal]
-- reply 3.4

-- ask Please list IC50 recorded for the molecule C=C1CCC2CC1C2(C)C (stereo not shown)
-- reply 12.7

-- ask Please list IC50 recorded for the molecule CC(=O)/C=C/C1=C(C)CCCC1(C)C
-- reply 10.3

-- ask Please list IC50 recorded for the molecule O=Cc1ccccc1
-- reply 17.9

* * *

Reported pKd values for the following molecules.
# assayedSystem: McinOBP1-wt (Macrocentrus cingulum)
# testDetails: Competitive fluorescence binding assay, displacement of 1-NPN
Answer as the number alone; pKd is minus log10 of concentration in mol/L.

Below are worked cases with known answers.
CC(=O)/C=C/C1=C(C)CCCC1(C)C [β-Ionone] :: 5.05
CC(=O)/C=C/C1C(C)=CCCC1(C)C (stereo not drawn) [α-Ionone] :: 5.03

Below: the item to evaluate.
-- ask Please list pKd recorded for the molecule C=C1CCC2CC1C2(C)C (stereo not drawn) [β-Pinene]
-- reply 4.97
